The following compounds are shown together with reported pIC50 values.
Test system: Plasmodium falciparum
Procedure summary: Antiplasmodial activity against chloroquine-sensitive Plasmodium falciparum 3D7 after 48 hrs by FACS analysis
Format: functional, organism-based
Applied conditions: 3D7, 48 h
pIC50: −log10 of the molar value.
Measurement kind: pIC50

compound="C[C@@H]1CC[C@H]2[C@@H](C)C(=O)O[C@@H]3O[C@@]4(C)CC[C@@H]1[C@]32OO4 [ARTEMISININ]" observed_result=7.44
compound=CC(C)CN(NC(=O)C1CCC(=O)CC1)c1nc(C#N)ncc1Br observed_result=7.32
compound="CC(C)CN(NC(=O)CC1CCC2(CC1)OOC1(OO2)C2CC3CC(C2)CC1C3)c1nc(C#N)ncc1Br (centres undefined)" observed_result=7.72
compound="N#Cc1ncc(Br)c(N(NC(=O)C2CCC3(CC2)OOC2(OO3)C3CC4CC(C3)CC2C4)C2CCCCC2)n1 (centres undefined)" observed_result=7.11
compound="CC(C)CN(NC(=O)C1CCC2(CC1)OOC1(OO2)C2CC3CC(C2)CC1C3)c1ccnc(C#N)n1 (centres undefined)" observed_result=7.88
compound="CC(C)CN(NC(=O)C1CCC2(CC1)OOC1(OO2)C2CC3CC(C2)CC1C3)c1nc(C#N)ncc1Br (centres undefined)" observed_result=7.24
compound="N#Cc1ncc(Br)c(N(CC2CCCC2)NC(=O)C2CCC3(CC2)OOC2(OO3)C3CC4CC(C3)CC2C4)n1 (centres undefined)" observed_result=7.15
compound="CC(C)CN(NC(=O)C1CCC2(CC1)OOC1(OO2)C2CC3CC(C2)CC1C3)c1nc(C#N)ncc1Cl (centres undefined)" observed_result=7.09
compound="CC(C)CN(NC(=O)C1CCC2(CC1)OOC1(OO2)C2CC3CC(C2)CC1C3)c1cc(Cl)nc(C#N)n1 (centres undefined)" observed_result=7.55
